Origin of the recorded values: paper PMC10397247

# targetDesc: T1, 4H891-AA
# T1 chain: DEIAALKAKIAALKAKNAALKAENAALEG
# testMethodNotes: two-hybrid library CCmax;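 also: natural log of median RNA to DNA barcode read ratio; higher means stronger binding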
# conditionContext: mean of both orientations
assayEndpoint: interaction score
Enter the number alone.

Example binders with recorded interaction score:
Measured interaction score of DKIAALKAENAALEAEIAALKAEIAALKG [4H2698-AA] : -1.59

For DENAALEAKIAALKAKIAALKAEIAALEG [4H1385-AA] the binder record lists interaction score as -1.56

Notebook: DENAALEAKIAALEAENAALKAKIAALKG [4H1310-AA] , interaction score read as -1.69

Measured interaction score, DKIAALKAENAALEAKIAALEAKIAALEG [4H2725-AA] : -1.64

Noted for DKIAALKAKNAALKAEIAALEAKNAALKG [4H3016-AA] : its interaction score reads -1.63

***
So, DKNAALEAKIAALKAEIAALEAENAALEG [4H3395-AA] ? Its interaction score was 0.496

Measured interaction score, DKNAALKAENAALEAKIAALKAEIAALEG [4H3753-AA] : -1.97
